Entry source: ChEMBL document CHEMBL1130750

Target: Glutamate NMDA receptor
Test: Compound was tested in vitro for inhibition of binding of [3H]-CGS- 19755 radioligand to NMDA receptor in rat brain membranes
Assay type: cell membranes
Measured property: IC50 (µM)

> print(dat)
                               cpd.smiles  output.unit  endpoint.value
1   O=C(O)[C@H]1C[C@@H](CSc2nn[nH]n2)CCN1           µM             1.3
2   O=C(O)[C@H]1C[C@@H](CCc2nnn[nH]2)CCN1           µM             2.3
3  O=C(O)[C@H]1C[C@@H](COCc2nn[nH]n2)CCN1           µM             8.3
4   O=C(O)[C@H]1C[C@@H](OCc2nn[nH]n2)CCN1           µM            0.28
5    O=C(O)[C@H]1C[C@@H](Sc2nn[nH]n2)CCN1           µM            0.11
6    O=C(O)[C@H]1C[C@@H](Cc2nnn[nH]2)CCN1           µM           0.017
7     O=C(O)[C@H]1C[C@H](Sc2nn[nH]n2)CCN1           µM           0.075
